Molecular target: LINE1 reverse transcriptase (Homo sapiens, UniProt O00370)
Construct: expressed in transfected cells; host or cells: HeLa Tet-On 3G (Takara, cat no 631183)
Experiment: Stable artificial-intron Cis LINE1 reporter assay (HeLa Tet-On 3G, Firefly luciferase)
Format: cell-based
Conditions: HeLa L1 artificial-intron reporter cells, doxycycline 500 ng/mL, 72 h, class symbols
EXPERIMENTAL_READOUT: IC50

- COMPOUND: "C=C=C[C@]1(CO)O[C@@H](n2cnc3c(N)nc(F)nc32)C[C@@H]1O [Compound 164]"
  ASSAYED_TARGET: "LINE1 reverse transcriptase (Homo sapiens, UniProt O00370)"
  REPORTED_MEASUREMENT: "250 to 1000 nM"
- COMPOUND: "Cc1cn([C@H]2C[C@H](F)[C@](CO)(CCl)O2)c(=O)[nH]c1=O [Compound 7]"
  ASSAYED_TARGET: "LINE1 reverse transcriptase (Homo sapiens, UniProt O00370)"
  REPORTED_MEASUREMENT: "> 1000 nM"
- COMPOUND: "Nc1ccn([C@@H]2O[C@H](CO)[C@@H](O)C2(F)F)c(=O)n1 [Compound 111]"
  ASSAYED_TARGET: "LINE1 reverse transcriptase (Homo sapiens, UniProt O00370)"
  REPORTED_MEASUREMENT: "≤ 50 nM"
- COMPOUND: "C#C[C@]1(CO)O[C@@H](n2cnc3c(N)nc(Cl)nc32)C[C@@H]1O [Compound 25]"
  ASSAYED_TARGET: "LINE1 reverse transcriptase (Homo sapiens, UniProt O00370)"
  REPORTED_MEASUREMENT: "≤ 50 nM"
- COMPOUND: "Nc1ccn([C@@H]2O[C@@](CO)(CCl)[C@@H](O)[C@@H]2F)c(=O)n1 [Compound 40]"
  ASSAYED_TARGET: "LINE1 reverse transcriptase (Homo sapiens, UniProt O00370)"
  REPORTED_MEASUREMENT: "≤ 50 nM"
- COMPOUND: "Nc1nc(=O)n([C@H]2C[C@H](O)[C@](CO)(CF)O2)cc1F [Compound 22]"
  ASSAYED_TARGET: "LINE1 reverse transcriptase (Homo sapiens, UniProt O00370)"
  REPORTED_MEASUREMENT: "≤ 50 nM"
- COMPOUND: "Nc1ccn([C@H]2C[C@H](O)[C@](CO)(CC(F)(F)F)O2)c(=O)n1 [Compound 62]"
  ASSAYED_TARGET: "LINE1 reverse transcriptase (Homo sapiens, UniProt O00370)"
  REPORTED_MEASUREMENT: "250 to 1000 nM"
- COMPOUND: "CC[C@]1(CO)O[C@@H](n2ccc(N)nc2=O)[C@@H](F)[C@@H]1O [Compound 51]"
  ASSAYED_TARGET: "LINE1 reverse transcriptase (Homo sapiens, UniProt O00370)"
  REPORTED_MEASUREMENT: "≤ 50 nM"

====

Target: LINE1 reverse transcriptase (recombinant MBP-tagged LINE1 protein (238-1061)) (Homo sapiens)
Construct: recombinant MBP-tagged LINE1 protein (238-1061)
Experiment: Homogeneous time-resolved fluorescence (HTRF) LINE1 RT assay
Conditions: triphosphate analogs, LINE1 enzyme 64 ng/well, 25° C. 60 minutes
Measured log10 of IC50, listed per entry.
EXPERIMENTAL_READOUT: log10 of IC50 (log10 of the value in nM)

- SMILES_REPR: "CC[C@]1(COP(=O)(O)OP(=O)(O)OP(=O)(O)O)O[C@@H](n2ccc(N)nc2=O)C[C@@H]1O"
  log10 of IC50: 2.03
- SMILES_REPR: "Nc1nc(=O)n([C@@H]2O[C@](CBr)(COP(=O)(O)OP(=O)(O)OP(=O)(O)O)[C@@H](O)[C@@H]2F)cc1F"
  log10 of IC50: 3.21
- SMILES_REPR: "Nc1ccn([C@H]2C[C@H](O)[C@@](CCl)(COP(=O)(O)OP(=O)(O)OP(=O)(O)O)O2)c(=O)n1"
  log10 of IC50: 1.68
- SMILES_REPR: "C=C[C@]1(COP(=O)(O)OP(=O)(O)OP(=O)(O)O)O[C@@H](n2ccc(N)nc2=O)C[C@@H]1O"
  log10 of IC50: 1.91
- SMILES_REPR: "Nc1nc(=O)n([C@@H]2O[C@](CCl)(COP(=O)(O)OP(=O)(O)OP(=O)(O)O)[C@@H](O)[C@@H]2F)cc1F"
  log10 of IC50: 2.63
- SMILES_REPR: "C#C[C@]1(COP(=O)(O)OP(=O)(O)OP(=O)(O)O)O[C@@H](n2ccc(N)nc2=O)[C@@H](F)[C@@H]1O"
  log10 of IC50: 1.14
- SMILES_REPR: "Nc1nc(=O)n([C@H]2C[C@H](O)[C@@](CCl)(COP(=O)(O)OP(=O)(O)OP(=O)(O)O)O2)cc1F"
  log10 of IC50: 2.43
- SMILES_REPR: "Nc1ccn([C@@H]2O[C@](CCl)(COP(=O)(O)OP(=O)(O)OP(=O)(O)O)[C@@H](O)[C@@H]2F)c(=O)n1"
  log10 of IC50: 2.92

====

Target: HERV-K reverse transcriptase (Homo sapiens, UniProt V9H0F6)
Sequence (V9H0F6 entry or part of it): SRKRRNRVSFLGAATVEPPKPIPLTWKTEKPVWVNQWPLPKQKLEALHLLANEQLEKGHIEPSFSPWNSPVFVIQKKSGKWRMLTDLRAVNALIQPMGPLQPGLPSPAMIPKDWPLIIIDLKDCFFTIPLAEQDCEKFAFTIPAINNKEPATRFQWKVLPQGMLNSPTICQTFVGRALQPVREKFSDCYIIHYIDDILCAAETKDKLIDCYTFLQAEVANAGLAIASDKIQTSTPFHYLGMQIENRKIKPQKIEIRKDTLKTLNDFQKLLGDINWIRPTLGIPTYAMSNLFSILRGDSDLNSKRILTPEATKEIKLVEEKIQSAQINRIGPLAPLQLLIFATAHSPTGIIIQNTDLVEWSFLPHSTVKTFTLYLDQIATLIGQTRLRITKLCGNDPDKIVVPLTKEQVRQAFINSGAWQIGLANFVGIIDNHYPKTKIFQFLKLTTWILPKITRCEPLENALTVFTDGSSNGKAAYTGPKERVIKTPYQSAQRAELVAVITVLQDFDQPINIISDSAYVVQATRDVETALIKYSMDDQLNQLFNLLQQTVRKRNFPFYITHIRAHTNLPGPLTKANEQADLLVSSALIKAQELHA

- SMILES_REPR: "Nc1nc(=O)n([C@@H]2O[C@](CCl)(COP(=O)(O)OP(=O)(O)OP(=O)(O)O)[C@@H](O)[C@@H]2F)cc1F"
  IC50: "> 10 µM"
- SMILES_REPR: "C=C[C@]1(COP(=O)(O)OP(=O)(O)OP(=O)(O)O)O[C@@H](n2ccc(N)nc2=O)C[C@@H]1O"
  IC50: "4.01 µM"
- SMILES_REPR: "Nc1nc(=O)n([C@H]2C[C@H](O)[C@@](CCl)(COP(=O)(O)OP(=O)(O)OP(=O)(O)O)O2)cc1F"
  IC50: "> 10 µM"
- SMILES_REPR: "Nc1ccn([C@@H]2O[C@](CCl)(COP(=O)(O)OP(=O)(O)OP(=O)(O)O)[C@@H](O)[C@@H]2F)c(=O)n1"
  IC50: "> 10 µM"

====

Test system: human PBMC
Experiment: Decitabine-stimulated human PBMC assay (IFN-β, cell viability)
Type: cell-based
Settings: anti-CD3/anti-CD28, decitabine 10 μM, 5 days
EXPERIMENTAL_READOUT: IFN-β level

- SMILES_REPR: "Nc1ccn([C@@H]2O[C@@](CO)(CCl)[C@@H](O)[C@@H]2F)c(=O)n1"
  EXPERIMENTAL_READOUT: "IFN-β level"
  REPORTED_MEASUREMENT: "inhibition of IFN-0"
- SMILES_REPR: "Nc1ccn([C@H]2C[C@H](O)[C@](CO)(CCl)O2)c(=O)n1"
  EXPERIMENTAL_READOUT: "IFN-β level"
  REPORTED_MEASUREMENT: "inhibition of IFN-0"

====

Target: human telomerase (Homo sapiens)
Construct: endogenous in cells; host or cells: MCF-7 cell lysate
Sequence (O14746 whole entry): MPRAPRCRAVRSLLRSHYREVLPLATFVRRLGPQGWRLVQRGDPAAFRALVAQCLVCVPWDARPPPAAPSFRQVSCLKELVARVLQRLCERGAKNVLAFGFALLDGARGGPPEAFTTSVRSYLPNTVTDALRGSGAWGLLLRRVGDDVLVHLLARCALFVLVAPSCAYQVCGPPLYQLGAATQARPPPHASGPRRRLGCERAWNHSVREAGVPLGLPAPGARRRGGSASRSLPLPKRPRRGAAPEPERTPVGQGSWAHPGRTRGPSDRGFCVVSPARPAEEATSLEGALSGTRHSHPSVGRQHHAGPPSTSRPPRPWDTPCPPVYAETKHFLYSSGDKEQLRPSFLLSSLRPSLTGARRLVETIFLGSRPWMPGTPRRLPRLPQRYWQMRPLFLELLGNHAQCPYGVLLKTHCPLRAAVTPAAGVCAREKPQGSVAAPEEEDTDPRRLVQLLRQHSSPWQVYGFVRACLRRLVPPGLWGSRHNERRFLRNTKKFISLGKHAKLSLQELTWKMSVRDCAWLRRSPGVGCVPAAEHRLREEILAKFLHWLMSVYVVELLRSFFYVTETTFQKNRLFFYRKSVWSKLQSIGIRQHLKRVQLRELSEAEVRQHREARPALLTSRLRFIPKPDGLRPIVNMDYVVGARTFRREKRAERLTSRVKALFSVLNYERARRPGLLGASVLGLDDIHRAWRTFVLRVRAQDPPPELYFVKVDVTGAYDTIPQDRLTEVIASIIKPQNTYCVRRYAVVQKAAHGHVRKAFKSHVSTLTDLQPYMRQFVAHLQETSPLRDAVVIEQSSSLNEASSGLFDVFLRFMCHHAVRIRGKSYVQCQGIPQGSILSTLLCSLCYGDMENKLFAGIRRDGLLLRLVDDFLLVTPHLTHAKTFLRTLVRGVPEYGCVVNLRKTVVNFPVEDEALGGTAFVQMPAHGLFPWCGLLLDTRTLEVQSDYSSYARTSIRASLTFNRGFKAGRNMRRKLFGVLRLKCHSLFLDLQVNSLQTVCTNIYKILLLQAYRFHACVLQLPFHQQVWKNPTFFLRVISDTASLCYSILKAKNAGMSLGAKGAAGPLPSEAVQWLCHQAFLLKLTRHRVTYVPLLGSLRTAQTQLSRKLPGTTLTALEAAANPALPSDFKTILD
Sequence (O60832 whole entry partner): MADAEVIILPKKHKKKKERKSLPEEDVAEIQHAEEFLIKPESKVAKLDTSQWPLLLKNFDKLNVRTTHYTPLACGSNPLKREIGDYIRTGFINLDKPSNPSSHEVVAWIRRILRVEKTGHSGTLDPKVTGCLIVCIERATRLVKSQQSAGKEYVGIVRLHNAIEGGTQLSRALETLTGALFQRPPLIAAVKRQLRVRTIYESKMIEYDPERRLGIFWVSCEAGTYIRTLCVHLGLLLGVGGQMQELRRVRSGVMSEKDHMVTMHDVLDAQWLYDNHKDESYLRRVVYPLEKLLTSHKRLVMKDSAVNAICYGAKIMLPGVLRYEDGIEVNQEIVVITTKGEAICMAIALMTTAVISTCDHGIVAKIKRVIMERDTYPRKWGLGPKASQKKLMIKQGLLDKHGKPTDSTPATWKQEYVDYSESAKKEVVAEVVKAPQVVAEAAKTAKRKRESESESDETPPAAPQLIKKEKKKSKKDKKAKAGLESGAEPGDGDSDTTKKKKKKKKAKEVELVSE
Sequence (Q9NX24 whole entry partner): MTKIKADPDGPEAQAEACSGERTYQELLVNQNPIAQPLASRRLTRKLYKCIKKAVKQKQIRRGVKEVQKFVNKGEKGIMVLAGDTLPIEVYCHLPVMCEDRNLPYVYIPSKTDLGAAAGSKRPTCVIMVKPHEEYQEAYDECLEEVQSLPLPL
Sequence (Q9NPE3 whole entry partner): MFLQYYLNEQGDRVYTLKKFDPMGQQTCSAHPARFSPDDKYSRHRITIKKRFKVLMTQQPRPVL
Sequence (Q9NY12 whole entry partner): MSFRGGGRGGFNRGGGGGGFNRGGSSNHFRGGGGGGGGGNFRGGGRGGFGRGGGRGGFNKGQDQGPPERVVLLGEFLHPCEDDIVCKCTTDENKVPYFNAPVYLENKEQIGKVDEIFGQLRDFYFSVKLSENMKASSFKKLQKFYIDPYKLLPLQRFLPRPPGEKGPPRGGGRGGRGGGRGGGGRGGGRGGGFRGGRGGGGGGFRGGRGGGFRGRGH
Assay: Human telomerase PCR ELISA assay (MCF-7 cell lysate)
Format: biochemical
Details: triphosphates, 0.2 μg MCF-7 lysate
Measured IC50, listed per entry.
EXPERIMENTAL_READOUT: IC50

- SMILES_REPR: "Nc1nc(=O)n([C@H]2C[C@H](O)[C@@](CCl)(COP(=O)(O)OP(=O)(O)OP(=O)(O)O)O2)cc1F"
  REPORTED_MEASUREMENT: "≤ 1 µM"
- SMILES_REPR: "C=C[C@]1(COP(=O)(O)OP(=O)(O)OP(=O)(O)O)O[C@@H](n2ccc(N)nc2=O)C[C@@H]1O"
  REPORTED_MEASUREMENT: "1 to 25 µM"
- SMILES_REPR: "Nc1ccn([C@H]2C[C@H](O)[C@@](CCl)(COP(=O)(O)OP(=O)(O)OP(=O)(O)O)O2)c(=O)n1"
  REPORTED_MEASUREMENT: "≤ 1 µM"
- SMILES_REPR: "Nc1ccn([C@@H]2O[C@](CCl)(COP(=O)(O)OP(=O)(O)OP(=O)(O)O)[C@@H](O)[C@@H]2F)c(=O)n1"
  REPORTED_MEASUREMENT: "> 100 µM"
- SMILES_REPR: "Nc1nc(=O)n([C@@H]2O[C@](CCl)(COP(=O)(O)OP(=O)(O)OP(=O)(O)O)[C@@H](O)[C@@H]2F)cc1F"
  REPORTED_MEASUREMENT: "> 100 µM"
- SMILES_REPR: "CC[C@]1(COP(=O)(O)OP(=O)(O)OP(=O)(O)O)O[C@@H](n2ccc(N)nc2=O)C[C@@H]1O"
  REPORTED_MEASUREMENT: "25 to 50 µM"
- SMILES_REPR: "C#C[C@]1(COP(=O)(O)OP(=O)(O)OP(=O)(O)O)O[C@@H](n2ccc(N)nc2=O)[C@@H](F)[C@@H]1O"
  REPORTED_MEASUREMENT: "> 100 µM"
